The measurements presented in this section are drawn from patent US20250221966A1.

# target_of_assay: human RXFP1 (Homo sapiens, UniProt Q9HBX9)
# Construct: expressed in transfected cells
# Sequence (Q9HBX9 whole entry): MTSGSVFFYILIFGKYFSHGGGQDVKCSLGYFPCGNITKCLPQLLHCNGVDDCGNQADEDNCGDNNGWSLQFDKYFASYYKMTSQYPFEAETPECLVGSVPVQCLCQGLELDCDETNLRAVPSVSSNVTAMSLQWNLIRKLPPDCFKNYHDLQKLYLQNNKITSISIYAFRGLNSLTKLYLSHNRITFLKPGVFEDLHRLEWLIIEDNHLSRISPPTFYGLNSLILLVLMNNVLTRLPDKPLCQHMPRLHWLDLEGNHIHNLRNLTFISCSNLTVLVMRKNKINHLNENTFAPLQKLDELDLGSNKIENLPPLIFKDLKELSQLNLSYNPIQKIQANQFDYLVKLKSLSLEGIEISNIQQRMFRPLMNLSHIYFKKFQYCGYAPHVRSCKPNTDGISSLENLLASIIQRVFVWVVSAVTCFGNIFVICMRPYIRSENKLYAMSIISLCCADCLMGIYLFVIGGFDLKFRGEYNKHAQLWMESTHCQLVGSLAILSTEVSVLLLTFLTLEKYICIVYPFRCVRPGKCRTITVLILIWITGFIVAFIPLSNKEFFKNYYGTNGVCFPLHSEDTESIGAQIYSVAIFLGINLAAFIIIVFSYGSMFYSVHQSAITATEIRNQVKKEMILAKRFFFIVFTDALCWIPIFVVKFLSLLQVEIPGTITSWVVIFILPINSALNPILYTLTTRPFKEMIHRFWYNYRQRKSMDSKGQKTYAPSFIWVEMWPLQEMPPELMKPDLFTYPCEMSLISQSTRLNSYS
# test_summary: RXFP1 cAMP assay (hRXFP1 HEK293 cAMP assay, HTRF)
# Type: cell-based
# measurement_context: HEK293 cells stably expressing human RXFP1, 30 min at room temperature, read-out: cAMP hRXFP1 HEK293 Assay EC50
pEC50: −log10 of the molar value.
endpoint: pEC50

molecule	pEC50
COc1ccc(C2=NOC3CC(C)(CO)CC23)cc1C(=O)N[C@H]1[C@@H](C(=O)Nc2ccc(F)c(C(F)(F)F)c2)[C@H]2CC[C@@H]1/C2=C\C1CC1 (stereo partly drawn) [compound 735]	8.89
CCCC/C=C1\C2CCC1[C@H](C(=O)Nc1ccc(F)c(C(F)(F)F)c1)[C@@H]2NC(=O)c1cc(C2=NOC(CO)C2)ccc1OC (stereo partly drawn) [compound 383]	6.90
COc1ccc(C2=NOC(C(=O)O)C2)cc1C(=O)N[C@@H]1C2CCC(/C2=C/C2CCC2)[C@@H]1C(=O)Nc1ccc(F)c(C(F)(F)F)c1 (stereo partly drawn) [compound 388]	6.82
CNC(=O)OC(C(=O)NC)c1ccc(F)c(-c2ccc(OC)c(C(=O)N[C@@H]3C4CCC(/C4=C/C4CC4)[C@@H]3C(=O)Nc3ccc(F)c(C(F)(F)F)c3)c2)c1 (stereo partly drawn) [compound 235]	9.00

[A] COc1ccc(N2CCCC(C(=O)O)C2)cc1C(=O)N[C@@H]1C2CCC(/C2=C/c2ccccc2)[C@@H]1C(=O)Nc1ccc(F)c(C(F)(F)F)c1 (stereo partly drawn) [Example 136]
[B] COc1ccc(C2=NOC3COCC23)cc1C(=O)N[C@H]1[C@@H](C(=O)NCc2cccc(Cl)c2Cl)[C@H]2CC[C@@H]1/C2=C\C1CC1 (stereo partly drawn) [compound 582]
[C] COc1ccc(C2=NOC(C3(O)CCCC3)C2)cc1C(=O)N[C@H]1[C@@H](C(=O)Nc2ccc(F)c(C(F)(F)F)c2)[C@H]2CC[C@@H]1/C2=C\C1CC1 (single isomer, unassigned) [compound 619]
Given 3 molecules, produce a descending ranking by pEC50. List labels; respect the requested ordering.
B, C, A
(B: 7.13, C: 6.81, A: 6.57)

[A] COc1ccc(C2=NOC3COCC23)cc1C(=O)N[C@H]1[C@@H](C(=O)NCc2ccccc2C)[C@H]2CC[C@@H]1/C2=C\C1CC1 (stereo partly drawn) [compound 585]
[B] COc1ccc(C2CCCN2C(=O)OC(C)(C)C)cc1C(=O)N[C@@H]1C2CCC(/C2=C/C2CC2)[C@@H]1C(=O)Nc1ccc(F)c(C(F)(F)F)c1 (single isomer, unassigned) [compound 715]
Between A and B , which one shows the smaller pEC50 number? Mark your answer with the label of the selected entry.
B
(B: 5.71, A: 7.11)

[1] COc1ccc(C2=NOC3COCC23)cc1C(=O)N[C@H]1[C@@H](C(=O)NCc2c(Cl)cccc2Cl)[C@H]2CC[C@@H]1/C2=C\C1CC1 (stereo partly drawn) [compound 570]
[2] COc1ccc(N2CCC(NC(=O)C3CCOCC3)C2)cc1C(=O)N[C@@H]1C2CCC(/C2=C/C(F)(F)F)[C@@H]1C(=O)Nc1ccc(F)c(C(F)(F)F)c1 (single isomer, unassigned) [compound 336]
Of 1 versus 2 , which is the one with smaller reported pEC50? Kindly state the label of the option you pick.
2
(2: 5.71, 1: 7.20)

[A] COc1ccc(C2=NOC3CC(C(N)=O)CC23)cc1C(=O)N[C@H]1[C@@H](C(=O)Nc2ccc(F)c(C(F)(F)F)c2)[C@H]2CC[C@@H]1/C2=C\C1CC1 (single isomer, unassigned) [compound 587]
[B] COc1c(F)cc(C2=NOC3CC(CO)CC23)cc1C(=O)N[C@H]1[C@@H](C(=O)N[C@H](C)C2(C)CC2)[C@H]2CC[C@@H]1/C2=C\C1CC(F)(F)C1 (stereo partly drawn) [compound 813]
Hi! Which is lower in terms of pEC50, the first one A or the second one B ? Pick one; state its label.
A
(A: 7.09, B: 9.00)

[A] COc1ccc(C2CC3COCC32)cc1C(=O)N[C@H]1[C@@H](C(=O)Nc2ccc(F)c(C(F)(F)F)c2)[C@H]2CC[C@@H]1/C2=C\C1CC1 (stereo partly drawn) [Example 725]
[B] COc1ccc(C2=NOC3COCC23)cc1C(=O)N[C@H]1[C@@H](C(=O)NCC2(C)CC2)[C@H]2CC[C@@H]1/C2=C\C1CC1 (stereo partly drawn) [compound 522]
Could you tell me which of A and B has the lower pEC50 reading? // return label of chosen record
A
(A: 6.44, B: 7.68)

[1] COc1ccc(C2=NOC3COCC23)cc1C(=O)N[C@H]1[C@@H](C(=O)NC(C)(C)c2ccccc2Cl)[C@H]2CC[C@@H]1/C2=C\C1CC1 (stereo partly drawn) [compound 669]
[2] COc1c(F)cc(C2=NOC3CC(CO)CC23)cc1C(=O)N[C@H]1[C@@H](C(=O)N[C@H](C)C2(C)CC(F)(F)C2)[C@H]2CC[C@@H]1/C2=C\C1CC1 (stereo partly drawn) [compound 870]
[3] COc1ccc(-c2cccc(S(C)(=O)=O)c2)cc1C(=O)N[C@H]1[C@@H](C(=O)Nc2ccc(F)c(C(F)(F)F)c2)[C@H]2CC[C@@H]1/C2=C\C1CC1 [compound 898]
[4] COc1ccc(C2=NOC3COCC23)cc1C(=O)N[C@H]1[C@@H](C(=O)NCc2ccn(C)n2)[C@H]2CC[C@@H]1/C2=C\C1CC1 (stereo partly drawn) [compound 722]
Ascending by pEC50, please. Lab note: record answer as labels in requested order.
4, 1, 3, 2
(4: 5.38, 1: 6.38, 3: 8.41, 2: 8.66)

[P] COc1ccc(C2=NOC3CCCC23)cc1C(=O)N[C@H]1[C@@H](C(=O)Nc2ccc(F)c(C(F)(F)F)c2)[C@H]2CC[C@@H]1/C2=C\C1CC1 (single isomer, unassigned) [compound 662]
[Q] COc1ccc(-c2cc(C(OC(=O)Nc3ccccc3)C(F)F)ccc2F)cc1C(=O)N[C@H]1[C@@H](C(=O)Nc2ccc(F)c(C(F)(F)F)c2)[C@H]2CC[C@@H]1/C2=C\C1CC1 (stereo partly drawn) [Example 233]
// max by pEC50 over [ P , Q ] Bench note: the answer is the label of the chosen record.
Q

----------
# target_of_assay: human RXFP1 (Homo sapiens, UniProt Q9HBX9)
# Construct: expressed in transfected cells
# test_summary: RXFP1 cAMP assay (hRXFP1 HEK293 cAMP assay, HTRF)
# Format: cell-based
# measurement_context: HEK293 cells stably expressing human RXFP1, 30 min at room temperature, read-out: cAMP hRXFP1 HEK293 Assay EC50
pEC50: −log10 of the molar value.
endpoint: pEC50

[A] COc1cc(F)c(F)cc1C(=O)N[C@@H]1C2CCC(C2Cc2ccccc2)[C@@H]1C(=O)Nc1ccc(F)c(C(F)(F)F)c1 (stereo partly drawn)
[B] COc1ccc(-c2cc(C(F)(F)F)ccc2F)cc1C(=O)N[C@@H]1C2CCC(/C2=C/C2CC2)[C@@H]1C(=O)Nc1ccc(F)c(C(F)(F)F)c1 (stereo partly drawn)
[C] COc1ccc(C2=NOC(CO)C2CO)cc1C(=O)N[C@H]1[C@@H](C(=O)Nc2ccc(F)c(C(F)(F)F)c2)[C@H]2CC[C@@H]1/C2=C\C1CC1 (single isomer, unassigned) [compound 657]
rank_up(items): orders items by reported pEC50 in ascending numerical order. Use the labels to give the requested order.
A, C, B

----------
# target_of_assay: human RXFP1 (Homo sapiens, UniProt Q9HBX9)
# Construct: expressed in transfected cells
# test_summary: RXFP1 cAMP assay (hRXFP1 HEK293 cAMP assay, HTRF)
# Format: cell-based
# measurement_context: HEK293 cells stably expressing human RXFP1, 30 min at room temperature, read-out: cAMP hRXFP1 HEK293 Assay EC50
endpoint: EC50 (nM)

[1] COc1ccc(C2=NOC3COCC23)cc1C(=O)N[C@H]1[C@@H](C(=O)NCc2ccc(Cl)cc2Cl)[C@H]2CC[C@@H]1/C2=C\C1CC1 (some centres unmarked)
[2] COc1ccc(C2=NO[C@H]3CC(CO)C[C@@H]23)cc1C(=O)N[C@H]1[C@@H](C(=O)Nc2ccc(F)c(C(F)(F)F)c2)[C@H]2CC[C@@H]1/C2=C\CC(C)(C)C (some centres unmarked)
[3] COc1ccc(C2=NOC3COCC23)cc1C(=O)N[C@H]1[C@@H](C(=O)NC2CCCC2)[C@H]2CC[C@@H]1/C2=C\C1CC1 (some centres unmarked)
[4] COc1ccc(C2=NOC3CC(CO)CC23)cc1C(=O)N[C@H]1[C@@H](C(=O)Nc2ccc(F)c(C(F)(F)F)c2)[C@H]2CC[C@@H]1/C2=C\C1CCC1 (some centres unmarked)
[5] COc1ccc(C2=NOC3CC(C(O)C(F)(F)F)CC23)cc1C(=O)N[C@H]1[C@@H](C(=O)Nc2ccc(F)c(C(F)(F)F)c2)[C@H]2CC[C@@H]1/C2=C\C1CC1 (some centres unmarked) [compound 848]
Please give the order of these compounds when sorted by EC50, largest value leading. Give me the labels in the order the question wants.
1, 3, 2, 5, 4
(1: 240 nM, 3: 50.7 nM, 2: 4.7 nM, 5: 2.5 nM, 4: 0.6 nM)
